src = the kinase profiling compilation of Christmann-Franck et al. (2016)

Examples of molecules with documented residual activity follow.
- experimentalSystem: AKT1 (human) (UniProt P31749)
- Sequence (P31749 whole entry, looked up): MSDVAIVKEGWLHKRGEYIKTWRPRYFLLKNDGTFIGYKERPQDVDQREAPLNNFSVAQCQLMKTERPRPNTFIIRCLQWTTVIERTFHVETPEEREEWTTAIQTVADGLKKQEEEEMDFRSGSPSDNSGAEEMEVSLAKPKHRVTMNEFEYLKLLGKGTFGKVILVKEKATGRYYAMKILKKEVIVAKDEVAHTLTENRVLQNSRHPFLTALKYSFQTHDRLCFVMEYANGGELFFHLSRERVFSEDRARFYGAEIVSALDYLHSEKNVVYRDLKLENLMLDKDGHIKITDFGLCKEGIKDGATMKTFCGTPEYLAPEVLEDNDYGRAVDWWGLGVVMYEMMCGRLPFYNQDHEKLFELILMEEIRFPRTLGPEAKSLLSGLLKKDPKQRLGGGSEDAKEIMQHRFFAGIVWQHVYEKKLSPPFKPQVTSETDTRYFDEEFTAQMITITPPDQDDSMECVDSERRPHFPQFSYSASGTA
- runDescription: radiometric filter-binding kinase assay, Kinase HotSpot
- assaySetup: compound 0.5 µM; ATP 10 µM
Just the number in %, nothing appended.

Recorded results for 5 molecules are shown here.
Nc1ncnc2c1cnn2-c1ccccc1; 103
O=C1NC(=O)c2cc(Nc3ccc(F)cc3)c(Nc3ccc(F)cc3)cc21; 94.8
O=C(O)c1ccc2c3c1cccc3c(=O)n1c3ccccc3nc21; 101
Cn1cc(/C=C2\C(=O)Nc3ccc(S(N)(=O)=O)cc32)c2ccccc21; 105
COc1cc2c(cc1OC)-c1[nH]nc(Nc3cccc(F)c3)c1C2; 93.3

(Q) Consider the molecule shown here: COc1cc2c(Nc3ccc(Br)cc3F)ncnc2cc1OCC1CCN(C)CC1 What is its recorded residual activity?
(A) 94.7

(Q) # residual activity lookup, item c1ccc(-c2cnc(Nc3ccc(OCCN4CCCC4)cc3)s2)cc1
(A) 101
